Molecular target: α-glucosidase from baker's yeast
Test: α-Glucosidase inhibitory assay (PNP-G substrate) and kinetic analysis
Assay type: biochemical, S. cerevisiae
Details: pH 7.0, 37 °C, 2 mM PNP-G; read-out: α-glucosidase inhibition IC50
Quick reference: log10 IC50 of the listed items.
assay.endpoint: log10 IC50 (log10 of the value in nM)

- molecule.smiles: "CC1(C)CC[C@]2(C)CC[C@]3(C)C(=CC[C@@H]4[C@@]5(C)CC[C@H](O)C(C)(C)[C@@H]5CC[C@]43C)[C@@H]2C1"
  system.under.test: "α-glucosidase from baker's yeast"
  log10 IC50: 1.30
- molecule.smiles: "O=c1c(O)c(-c2ccc(O)c(O)c2)oc2cc(O)cc(O)c12"
  system.under.test: "α-glucosidase from baker's yeast"
  log10 IC50: 4.47
- molecule.smiles: "C[C@H]1[C@H](C)CC[C@]2(C(=O)O)CC[C@]3(C)C(=CC[C@@H]4[C@@]5(C)CC[C@H](O)C(C)(C)[C@@H]5CC[C@]43C)[C@H]12"
  system.under.test: "α-glucosidase from baker's yeast"
  log10 IC50: 3.03
- molecule.smiles: "C[C@H]1[C@H](C)CC[C@]2(C)CC[C@]3(C)C(=CC[C@@H]4[C@@]5(C)CC[C@H](O)C(C)(C)[C@@H]5CC[C@]43C)[C@H]12"
  system.under.test: "α-glucosidase from baker's yeast"
  log10 IC50: 3.16
- molecule.smiles: "O=c1c(O)c(-c2ccc(O)cc2)oc2cc(O)cc(O)c12"
  system.under.test: "α-glucosidase from baker's yeast"
  log10 IC50: 5.42
- molecule.smiles: "CC1(C)CC[C@]2(C(=O)O)CC[C@]3(C)C(=CC[C@@H]4[C@@]5(C)CC[C@H](O)C(C)(C)[C@@H]5CC[C@]43C)[C@@H]2C1"
  system.under.test: "α-glucosidase from baker's yeast"
  log10 IC50: 2.99
- molecule.smiles: "C=C(C)[C@@H]1CC[C@]2(C(=O)O)CC[C@]3(C)[C@H](CC[C@@H]4[C@@]5(C)CC[C@H](O)C(C)(C)[C@@H]5CC[C@]43C)[C@@H]12"
  system.under.test: "α-glucosidase from baker's yeast"
  log10 IC50: 3.37
